Assign growth to each entry below.
- Tested on: NCI-H522 lung
- protocol_notes: NCI-60 one-dose screen, 48 h (100 = growth as untreated, 0 = no growth, -100 = all killed)
- experimental_setup: 10 µM unless noted
- Procedure: Growth inhibition of the NCI-H522 human Non-Small Cell Lung tumor cell line is measured as a screen for anti-cancer activity. Cells are grown in 96 well plates and exposed to the test compound for 48 hours. Compounds are tested at a single concentration, which is 10^-5 M for most compounds. The reported endpoint is percent growth (GI% or GIPRCNT), where numbers from 0 - 100% represent growth inhibition, and numbers from -100% - 0 represent cell death. […]
This is part of a sample that, as a whole, favours compounds with a hit. Of some 83,000 tested, about 20% had one in any assay.
Respond numerically; units are % and should not be typed.

The compound listed as CCn1nccc1NC(=O)C(=O)c1cn(Cc2ccc(F)cc2)c2cccc(OC)c12 has a reported growth of 57.3

Noted for CC[C@]12C=CCN3CC[C@@]4(c5ccc(OC)cc5N(C)[C@H]4[C@@](O)(C(=O)OC)[C@@H]1OC(=O)CCCC[P+](c1ccccc1)(c1ccccc1)c1ccccc1)[C@@H]32 : its growth reads -5.5

Given item CC[C@H](C)[C@H](NC(=O)c1nccn1C)C(=O)N(C)[C@H](C[C@@H](OC(C)=O)c1nc(C(=O)N[C@@H](Cc2ccccc2)C[C@H](C)C(=O)OC)cs1)C(C)C , the value recorded as its growth is -26.7
